# System: VchCAST RNA-guided transposition machinery (E. coli BL21(DE3) host, lacZ target)
# assay.name: relative integration efficiency (T-LR orientation) vs wild-type transposon end (log2 (normalized fold change)); transposon end mutated: right end (5 bp flank + 75 bp right end); higher = more efficient transposition
Task for the reader: assign each of the following sequences its reported relative integration efficiency (log2).
Form: value (number only, do not type unit).

Quick check: relative integration efficiency (log2) of ACATTTGTTGATACAACCATTAAATGATAATTCCACCCATCAATTGATAATTATCACACCCAATTTAACTATAACGCTCTGATCATAGTCAGACCAACATTGCTACGACCCGTATTCGCACCGACAC ?
1.01

Quick check: relative integration efficiency (log2) of ACATTTGTTGATACAACCCTAAAATGATAATTACACCCATAAATGGATAATTATCACCCCCAATTTAACTATAACGCTCTGATCATAGTCAGACCAACATTGCTACGACCCGTATTCGCACCGACAC ?
-0.791

Quick check: relative integration efficiency (log2) of ACATTTGTTGATACAACCATAAAATGATACGGCACAAACGCCCGGTCGCCGGCGACACAAACGCCCGGTCGCGGTAAGAGGATCATAGTCAGACCAACATTGCTACGACCCGTATTCGCACCGACAC ?
0.976
